pIC50 values, listed per item
- Target or system: cyclin‐dependent kinase 4 (CDK4) (Homo sapiens)
- Sequence (P11802 whole entry): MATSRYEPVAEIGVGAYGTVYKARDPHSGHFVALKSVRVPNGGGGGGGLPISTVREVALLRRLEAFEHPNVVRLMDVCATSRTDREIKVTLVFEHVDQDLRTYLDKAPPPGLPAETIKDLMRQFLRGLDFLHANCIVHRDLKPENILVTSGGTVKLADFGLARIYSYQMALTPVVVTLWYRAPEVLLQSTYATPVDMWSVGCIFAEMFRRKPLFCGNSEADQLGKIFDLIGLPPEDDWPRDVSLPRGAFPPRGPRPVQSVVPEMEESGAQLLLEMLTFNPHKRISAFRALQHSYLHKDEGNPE
- Sequence (P30281 whole entry partner): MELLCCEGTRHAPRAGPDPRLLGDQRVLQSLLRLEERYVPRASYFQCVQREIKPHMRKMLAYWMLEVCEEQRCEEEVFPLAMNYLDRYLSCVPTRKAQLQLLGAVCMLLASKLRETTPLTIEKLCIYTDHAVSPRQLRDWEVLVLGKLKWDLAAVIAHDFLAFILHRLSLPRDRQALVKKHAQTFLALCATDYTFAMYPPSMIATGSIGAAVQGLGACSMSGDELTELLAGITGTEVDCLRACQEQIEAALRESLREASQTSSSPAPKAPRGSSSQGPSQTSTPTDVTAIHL
As a rule, pIC50 stands for the negative log10 of the concentration, concentration in M.

COCCOCCOCCOP(=O)(OCCOCCOCCOC)N1CCN(c2ccc(Nc3ncc4cc(C(=O)N(C)C)n(C5CCCC5)c4n3)nc2)CC1 [Rib‐OEG3] ... 6.43
COCCOCCOP(=O)(OCCOCCOC)N1CCN(c2ccc(Nc3ncc4cc(C(=O)N(C)C)n(C5CCCC5)c4n3)nc2)CC1 [Rib‐OEG2] ... 6.96
COCCOCCOCCOCCOCCOCCOCCOCCOP(=O)(OCCOCCOCCOCCOCCOCCOCCOCCOC)N1CCN(c2ccc(Nc3ncc4cc(C(=O)N(C)C)n(C5CCCC5)c4n3)nc2)CC1 [Rib‐OEG8] ... 6.40
COCCOCCOP(=O)(OCCOCCOC)N1CCN(c2ccc(Nc3ncc4c(C)c(C(C)=O)c(=O)n(C5CCCC5)c4n3)nc2)CC1 [Pal‐OEG2] ... 6.00

The recorded pIC50 for COCCOCCOCCOCCOP(=O)(OCCOCCOCCOCCOC)N1CCN(c2ccc(Nc3ncc4cc(C(=O)N(C)C)n(C5CCCC5)c4n3)nc2)CC1 [Rib‐OEG4] is 7.92
